# IC50 values compiled below
# Test system: BA/F3 cell line
# ASSAY COMMENT: BA/F3 viability assay
# DETAILS: Mus musculus, BaF3, 48 h, read-out: BA/F3 IC50

Quick note, IC50 for CCc1cc(C(C#N)N2CCC(F)(F)CC2)ccc1N(C)c1cc2c(cn1)ncn2C (centres unmarked) landed at > 5 µM

New cases:
Quick note, IC50 for "CN(c1cc2c(cn1)ncn2C)c1c(F)cc(CNS(C)(=O)=O)cc1F" landed at > 5 µM

Quick note, IC50 for CCc1cc(C(C#N)N2CC(C#N)C2)ccc1N(C)c1cc2c(cn1)ncn2C (centres unmarked) landed at 1 to 5 µM

Quick note, IC50 for "CN(c1cc2c(cn1)ncn2C)c1ccc(C2CN(S(=O)(=O)N(C)C)C2)cc1OC(F)F" landed at 1 to 5 µM

Quick note, IC50 for "CCc1cc(CNC(=O)C2CCC(F)(F)CC2)ccc1N(C)c1cc2c(cn1)ncn2C" landed at > 5 µM

Quick note, IC50 for "CCc1cc(C2CN(S(=O)(=O)C(F)F)C2)ncc1N(C)c1cc2c(cn1)ncn2C" landed at > 5 µM

Quick note, IC50 for "CN(c1cc2c(cn1)ncn2C)c1ccc(CNS(C)(=O)=O)cc1OC(F)F" landed at > 5 µM

Quick note, IC50 for "CN(c1cc2c(cn1)ncn2C)c1ccc(-c2cnn(C)c2)cc1OC(F)F" landed at 1 to 5 µM

###

# pIC50 values compiled below
# TESTED SYSTEM: human JAK3 (Homo sapiens)
# Construct: catalytic domain (amino acids 781-1124; catalog number PV3855)
# Sequence (P52333 781-1124): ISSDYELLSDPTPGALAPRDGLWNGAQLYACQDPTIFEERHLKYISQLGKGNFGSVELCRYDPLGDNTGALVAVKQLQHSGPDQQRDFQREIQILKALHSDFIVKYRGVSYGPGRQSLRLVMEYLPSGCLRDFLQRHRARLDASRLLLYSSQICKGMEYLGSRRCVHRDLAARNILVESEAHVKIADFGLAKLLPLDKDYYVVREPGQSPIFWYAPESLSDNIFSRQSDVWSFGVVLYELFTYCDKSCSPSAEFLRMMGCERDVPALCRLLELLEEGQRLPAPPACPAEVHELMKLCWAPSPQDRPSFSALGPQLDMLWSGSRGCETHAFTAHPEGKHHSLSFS
# ASSAY COMMENT: JAK3 inhibition assay
# DETAILS: recombinant human JAK3 catalytic domain; polyGT substrate
pIC50: −log10 of the molar value.

Quick note, pIC50 for "CCc1cc(CNCC(F)(F)F)ccc1N(C)c1cc2c(cn1)ncn2C" landed at 6.30 to 7.00

Quick note, pIC50 for CCc1cc(N2CCC(C#N)C2)ncc1N(C)c1cc2c(cn1)ncn2C (stereo not drawn) landed at 7.00 to 11.00

Quick note, pIC50 for "COc1ccc(COc2ccc(C)c(N(C)c3cc4c(cn3)ncn4C)c2)cc1" landed at < 6.00

Quick note, pIC50 for "CCc1cc(-c2cnn(Cc3ccc(OC)cc3)c2)ccc1N(C)c1cc2c(cn1)ncn2C" landed at 6.30 to 7.00

Quick note, pIC50 for "CN(c1cc2c(cn1)ncn2C)c1c(F)cc(CC#N)cc1F" landed at 6.00 to 6.30

Quick note, pIC50 for "CCc1cc(C(=O)NCCC#N)ccc1N(C)c1cc2c(cn1)ncn2C" landed at < 6.00

New cases:
Quick note, pIC50 for "CCc1cc(C2=CCN(C(=O)CC#N)CC2)ccc1N(C)c1cc2c(cn1)ncn2C" landed at 6.30 to 7.00

Quick note, pIC50 for "CCc1cc(-c2ccc(C)s2)ncc1N(C)c1cc2c(cn1)ncn2C" landed at 6.30 to 7.00

###

# Tested on: pSTAT1(2)-luciferase reporter in HeLa cells triggered with human OSM
# ASSAY COMMENT: JAK-STAT signalling assay
# Format: cell-based
# DETAILS: Homo sapiens, HeLa, HeLa cells, pSTAT1(2)-luciferase reporter, human OSM 33 ng/mL; read-out: JAK-STAT IC50
MEASURED QUANTITY: IC50

Some entries whose results are on file:
Quick note, IC50 for "CCc1cc(-c2cnn(Cc3ccc(OC)cc3)c2)ccc1N(C)c1cc2c(cn1)ncn2C" landed at 0.001 to 0.5 µM

Quick note, IC50 for "CCc1cc(C(=O)NCCC#N)ccc1N(C)c1cc2c(cn1)ncn2C" landed at > 1 µM

Quick note, IC50 for CCc1cc(C2=CCN(C(=O)C(C)O)CC2)ccc1N(C)c1cc2c(cn1)ncn2C (stereo not drawn) landed at 0.001 to 0.5 µM

Quick note, IC50 for "CCc1cc(-c2noc(CCC#N)n2)ccc1N(C)c1cc2c(cn1)ncn2C" landed at 0.501 to 1 µM

Quick note, IC50 for "CCc1cc(F)ccc1N(C)c1cc2c(cn1)ncn2C" landed at > 1 µM

Quick note, IC50 for "CCNC(=O)c1ccc(N(C)c2cc3c(cn2)ncn3C)c(CC)c1" landed at > 1 µM

New cases:
Quick note, IC50 for "CCc1cc(C2=CCN(C(=O)[C@H](C)O)CC2)ccc1N(C)c1cc2c(cn1)ncn2C" landed at 0.001 to 0.5 µM

Quick note, IC50 for "CCc1cc(CN2CCOCC2)ccc1N(C)c1cc2c(cn1)ncn2C" landed at 0.501 to 1 µM

Quick note, IC50 for "CCc1cc(C2=CCN(C(=O)C(C)(C)O)CC2)ccc1N(C)c1cc2c(cn1)ncn2C" landed at 0.001 to 0.5 µM
